FYI, the data here is from paper PMC8400257.

Tested on: HepG2 human hepatocyte cell line
Assay: In vitro cytotoxicity evaluation HepG2 (MTT)
Type: cell-based
Settings: human, 72 h
Give measured CC50 for each item. Keep answers brief.
Enter your answer as a number in µM; do not include the unit.

# query: CC50 | item N#Cc1ccc(Oc2nc3ccccc3nc2C(Cl)(Cl)Cl)cc1 | system: HepG2 human hepatocyte cell line 15.4

Query FS(F)(F)(F)(F)c1ccc(Oc2nc3ccccc3nc2C(Cl)(Cl)Cl)cc1 next 16.6

* * *

I'd be grateful if you could share measured melting point for these entries.
Answer format: numeric, °C implied, no suffix.

Request the reported melting point associated with FC(F)(F)c1ccc(Oc2nc3ccccc3nc2C(Cl)(Cl)Cl)cc1 129

Item: O=S(=O)(c1ccc(Oc2nc3ccccc3nc2C(Cl)(Cl)Cl)cc1)C(F)(F)F 107

Here is the next molecule: FC(F)(F)Sc1ccc(Oc2nc3ccccc3nc2C(Cl)(Cl)Cl)cc1 94

Same thing, different molecule: ClC(Cl)(Cl)c1nc2ccccc2nc1Oc1ccccc1 59

Please give the result for Clc1ccccc1Oc1nc2ccccc2nc1C(Cl)(Cl)Cl too. 99

Another molecule to look at: N#Cc1ccc(Oc2nc3ccccc3nc2C(Cl)(Cl)Cl)cc1 194

Entry Clc1cccc(Oc2nc3ccccc3nc2C(Cl)(Cl)Cl)c1 please 58

Note, next up: FC(F)(F)Oc1ccc(Oc2nc3ccccc3nc2C(Cl)(Cl)Cl)cc1 66

Likewise for ClC(Cl)(Cl)c1nc2ccccc2nc1Oc1ccc(-c2ccccc2)cc1 ? 160

Entry O=[N+]([O-])c1ccc(Oc2cnc3ccccc3n2)cc1 please 156
